Parameter EC50: see the listing below.
molecular target: CD3 on 293T-CD3 cells; test: flow cytometry on 293T-CD3 cells
Sequence (chain, as listed by the source): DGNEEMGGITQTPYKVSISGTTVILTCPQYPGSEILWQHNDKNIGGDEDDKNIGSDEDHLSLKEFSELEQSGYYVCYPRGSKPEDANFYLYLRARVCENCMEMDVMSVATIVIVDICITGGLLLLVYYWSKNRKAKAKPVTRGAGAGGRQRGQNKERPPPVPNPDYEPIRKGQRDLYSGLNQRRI
Just the number in nM, nothing appended.

Here are 2 binders together with their reported answers.
{"columns": ["binder", "parameter", "data-value"],
 "data": [
  ["CD3 Ab06 (antibody, human IgG1, kappa, V domains shown, also called humanized anti-CD3 monoclonal antibody) VH: EVQLVESGGGLVQPGGSLRLSCAASGFTFNTYAMNWVRQAPGKGLEWVARIRSKYNNYATYYADSVKDRFTISRDDSKNILYLQMNSLKTEDTAVYYCVRHGNFGNSYVSWFAYWGQGTLVTVSA VL: QAVVTQEPSLTVSPGGTVTLTCRSSTGAVTTSNYANWVQQKPGQAPRGLIGGTNKRAPWTPARFSGSLLGGKAALTLSGAQPEDEAEYYCALWYSNLWVFGGGTKLTVLR", "EC50", 13],
  ["CD3 Ab07 (antibody, human IgG1, kappa, V domains shown, also called humanized anti-CD3 monoclonal antibody) VH: EVQLVESGGGLVQPGGSLRLSCAASGFTFNTYAMNWVRQAPGKGLEWVARIRSKYNNYATYYADSVKDRFTISRDDSKNILYLQMNSLKTEDTAVYYCVRHGNFGNSYVSWFAYWGQGTLVTVSA VL: QAVVTQEPSLTVSPGGTVTLTCRSSTGAVTTSNYANWVQQKPGQAPRGLIGGTNKRAPWTPARFSGSLLGGKAALTLSGAQTEDEAEYYCALWYSNLWVFGGGTKLTVLR", "EC50", 9.02]
]}

Consider now this further binder.
**Query** So what does the record say about EC50 for CD3 Ab09 (antibody, human IgG1, kappa, V domains shown, also called humanized anti-CD3 monoclonal antibody) VH: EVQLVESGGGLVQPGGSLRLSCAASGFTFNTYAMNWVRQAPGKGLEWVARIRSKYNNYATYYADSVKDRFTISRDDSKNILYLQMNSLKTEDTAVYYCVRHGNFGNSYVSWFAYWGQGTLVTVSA VL: QAVVTQEPSLTVSPGGTVTLTCRSSTGAVTTSNYANWVQQKPGQAPRGLIGGTNKRAPWVPARFSGSLLGDKAALTLSGAQTEDEAEYYCALWYSNLWVFGGGTKLTVLR ?
**Result** 4.4
